This section presents binders with their documented log2 enrichment score values.
- assayed_system: PADI4, Q9UM07
- Sequence (Q9UM07 whole entry): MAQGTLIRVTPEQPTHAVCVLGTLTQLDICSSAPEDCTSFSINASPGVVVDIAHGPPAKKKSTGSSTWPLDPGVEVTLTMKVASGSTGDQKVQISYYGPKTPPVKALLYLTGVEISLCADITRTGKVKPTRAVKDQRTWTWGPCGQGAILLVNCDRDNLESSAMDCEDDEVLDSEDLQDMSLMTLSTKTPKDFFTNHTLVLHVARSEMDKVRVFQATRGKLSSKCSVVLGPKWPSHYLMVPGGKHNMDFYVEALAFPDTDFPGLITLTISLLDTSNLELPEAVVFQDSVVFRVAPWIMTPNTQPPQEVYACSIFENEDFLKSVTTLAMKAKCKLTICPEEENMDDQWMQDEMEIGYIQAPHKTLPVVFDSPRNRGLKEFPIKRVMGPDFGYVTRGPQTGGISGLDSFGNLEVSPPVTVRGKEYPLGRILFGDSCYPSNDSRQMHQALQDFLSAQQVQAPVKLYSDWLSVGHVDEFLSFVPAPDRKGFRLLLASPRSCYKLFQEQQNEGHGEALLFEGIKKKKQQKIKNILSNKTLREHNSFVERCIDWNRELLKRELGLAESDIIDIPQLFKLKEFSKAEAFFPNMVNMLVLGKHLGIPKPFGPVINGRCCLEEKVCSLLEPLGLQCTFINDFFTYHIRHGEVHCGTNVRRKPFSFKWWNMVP
- assay_notes: log2 enrichment score relative to parent PADI4_3 peptide (binding to PADI4); higher = tighter binding than parent
- test_parameters: CaCl2: 10 mM

binder: YRDHHYRHWKYCG [PADI4_3_P9W P9W]
log2 enrichment score: -2

binder: YRDHHYSHPKYCG [PADI4_3_R7S R7S]
log2 enrichment score: -0.05

binder: YRDHHYRHPLYCG [PADI4_3_K10L K10L]
log2 enrichment score: 0.693

binder: YRDRHYRHPKYCG [PADI4_3_H4R H4R]
log2 enrichment score: 2.48

binder: YRDHHYRHPTYCG [PADI4_3_K10T K10T]
log2 enrichment score: 0.237

binder: YRDHHERHPKYCG [PADI4_3_Y6E Y6E]
log2 enrichment score: -1.85

binder: YRDHHYRHPYYCG [PADI4_3_K10Y K10Y]
log2 enrichment score: -0.51

binder: YRDHAYRHPKYCG [PADI4_3_H5A H5A]
log2 enrichment score: -2.12

Taken from the supplement of paper PMC11555231.
